Experiment: protein stability index of a GFP-peptide fusion (yeast GPS) (PSI 1-4); higher = more stable; sorted into four equal gates, so the index is relative within each strain
Conditions: san1∆
Value type: protein stability index

>>> data_value("HDFLFNTIIRDGSKMLK [RPN14]")
3.03
>>> data_value("TLSFNFSQKANKTKAVD [YOR098C/NUP1]")
1.84
>>> data_value("LWRNFCRKLSFSDKVNA [ITC1]")
1.14
>>> data_value("TEVRAEDEAALAKLVST [RPL8A]")
2.59
>>> data_value("RMVRSIMWQLLDGVSYL [SSN3]")
1.18
>>> data_value("LDLMFDEVYVQNSKFLK [YJL039C/NUP192]")
2.87
>>> data_value("GAKPAGSTGGLGASFGQ [YGL172W/NUP49]")
3.22
>>> data_value("NQTRKAHRNGIKKPKTY [RPL29]")
2.92
>>> data_value("PEQVYSLLLTNVIITGS [ARP7]")
1.17
>>> data_value("KSRIVKVVGPRGTLTKN [RPL9A]")
2.65
>>> data_value("NSSEQESDYEPNNETSV [SIR3]")
3.02
>>> data_value("KSITLKGRNNESNNKKY [YDL088C/ASM4]")
3.13
>>> data_value("WMLSICVEWRLPEIAKE [YJR042W/NUP85]")
1.51
>>> data_value("YATKDGVAHLLNRFNFQ [QCR2]")
1.87
